# STUDY TARGET: human Cystic Fibrosis Transmembrane Conductance Regulator (CFTR) harboring the ΔF508 mutation (Homo sapiens, UniProt P13569, DEL508-508)
# Sequence (P13569 with tags, fused parts or gaps DEL508-508): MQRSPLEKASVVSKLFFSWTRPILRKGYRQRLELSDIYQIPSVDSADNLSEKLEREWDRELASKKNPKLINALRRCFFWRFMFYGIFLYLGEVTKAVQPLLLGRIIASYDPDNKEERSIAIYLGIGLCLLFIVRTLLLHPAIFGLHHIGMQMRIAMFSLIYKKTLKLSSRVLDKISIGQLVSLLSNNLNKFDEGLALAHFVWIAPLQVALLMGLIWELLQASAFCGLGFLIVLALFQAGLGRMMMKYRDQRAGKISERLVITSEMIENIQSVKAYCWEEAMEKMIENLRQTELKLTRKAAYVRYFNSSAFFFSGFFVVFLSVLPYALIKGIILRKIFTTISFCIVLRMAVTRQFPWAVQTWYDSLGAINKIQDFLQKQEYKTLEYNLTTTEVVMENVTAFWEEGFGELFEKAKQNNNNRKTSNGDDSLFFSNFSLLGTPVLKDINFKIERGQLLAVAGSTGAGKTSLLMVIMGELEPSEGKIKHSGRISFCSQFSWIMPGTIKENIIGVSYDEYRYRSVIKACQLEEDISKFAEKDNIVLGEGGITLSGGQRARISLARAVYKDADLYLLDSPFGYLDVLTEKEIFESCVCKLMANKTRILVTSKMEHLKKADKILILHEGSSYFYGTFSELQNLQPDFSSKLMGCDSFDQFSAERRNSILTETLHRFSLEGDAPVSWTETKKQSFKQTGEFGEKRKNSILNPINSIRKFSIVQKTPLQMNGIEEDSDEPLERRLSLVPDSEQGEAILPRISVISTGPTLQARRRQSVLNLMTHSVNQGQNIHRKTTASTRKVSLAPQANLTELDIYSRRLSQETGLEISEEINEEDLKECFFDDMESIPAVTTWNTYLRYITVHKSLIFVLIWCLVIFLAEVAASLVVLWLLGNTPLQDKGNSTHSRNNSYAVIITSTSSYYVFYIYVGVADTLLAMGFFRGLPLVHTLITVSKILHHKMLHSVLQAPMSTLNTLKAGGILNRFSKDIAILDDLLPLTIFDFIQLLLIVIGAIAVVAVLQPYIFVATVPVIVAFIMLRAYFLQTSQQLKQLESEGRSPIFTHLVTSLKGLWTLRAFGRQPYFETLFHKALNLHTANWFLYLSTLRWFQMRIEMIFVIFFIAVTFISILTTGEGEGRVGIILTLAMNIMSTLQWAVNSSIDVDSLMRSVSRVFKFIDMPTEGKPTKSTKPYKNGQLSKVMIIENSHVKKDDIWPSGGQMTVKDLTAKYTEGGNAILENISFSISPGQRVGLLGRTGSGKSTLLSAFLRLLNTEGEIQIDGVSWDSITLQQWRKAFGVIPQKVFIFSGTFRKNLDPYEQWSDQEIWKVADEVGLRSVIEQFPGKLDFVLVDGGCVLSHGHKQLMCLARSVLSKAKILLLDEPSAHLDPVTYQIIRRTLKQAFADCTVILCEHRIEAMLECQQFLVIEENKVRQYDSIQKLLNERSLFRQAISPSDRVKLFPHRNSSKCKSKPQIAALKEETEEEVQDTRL
# TEST PROTOCOL: H441 cell ΔF508-CFTR-HRP cell surface assay (Emax and EC50)
Classify: Y when EC50 is strictly less than 400 nM; N when EC50 is not.

Asked: Decide: EC50 of CC(C)(C)[C@H](NC(=O)c1ccc2ccccc2c1OCc1ccc(C(F)(F)F)cc1)C(=O)O [Example 74] strictly below 400 nM?
Given back: N

Asked: Same read-out for CC(C)(C)[C@H](NC(=O)c1ccc2cc(F)ccc2c1OCc1ccc(SC(F)(F)F)cc1)C(=O)O [Example 75] ?
Given back: N

Asked: Then what about the compound CC(C)(C)[C@H](NC(=O)c1ccc2ccc(F)cc2c1OCc1ccc(OC(F)(F)F)cc1)C(=O)O [Example 239] ?
Given back: Y

Asked: Also check O=C(N[C@H](C(=O)O)C(c1ccccc1)c1ccccc1)c1ccc2ccccc2c1OCc1ccc(Cl)c(Cl)c1 [Example 207]
Given back: N

Asked: Do the same for CC(C)(SC1CCCC1)[C@H](NC(=O)c1ccc2ccccc2c1OCc1ccc(C(F)(F)F)cc1)C(=O)O [Example 168] please
Given back: N

###

# STUDY TARGET: human Cystic Fibrosis Transmembrane Conductance Regulator (CFTR) harboring the ΔF508 mutation (Homo sapiens, UniProt P13569, DEL508-508)
# TEST PROTOCOL: H441 cell ΔF508-CFTR-HRP cell surface assay (Emax and EC50)
Note to self: EC50 under 3000 nM means Condition met, ties and anything higher get Condition not met.

Asked: State whether 3000 nM exceeds EC50 recorded for CO[C@@H](C)[C@H](NC(=O)c1ccc2ccccc2c1OCc1ccc(C(F)(F)F)cc1)C(=O)O [Example 135] .
Given back: Condition not met

Asked: Another compound to look at: CC(C)(C)[C@@H](NC(=O)c1ccc2ccc(F)cc2c1OCc1ccc(OC(F)(F)F)cc1)C(=O)O [Example 259]
Given back: Condition met

Asked: Next record, please: CC(C)(C)[C@H](NC(=O)c1ccc2cc(F)ccc2c1OCc1nc2ccccc2s1)C(=O)O [Example 61]
Given back: Condition met

Asked: Next record, please: CC(C)(C)[C@H](NC(=O)c1ccc2ccccc2c1OCc1ccc(SC(F)(F)F)cc1)C(=O)O [Example 35]
Given back: Condition met

Asked: # repeat for CC(C)(C)C[C@H](NC(=O)c1ccc2ccccc2c1OCc1ccc(S(F)(F)(F)(F)F)cc1)C(=O)O [Example 110]
Given back: Condition met

Asked: Can you handle O=C(N[C@H](C(=O)O)C1CCCC1)c1ccc2cc(F)ccc2c1OCc1ccc(S(F)(F)(F)(F)F)cc1 [Example 113] next?
Given back: Condition not met

Asked: And CC(C)(C)[C@H](NC(=O)c1ccc2ccccc2c1OCc1ccc(S(F)(F)(F)(F)F)cc1)C(=O)O [Example 67] ?
Given back: Condition met

###

# STUDY TARGET: human Cystic Fibrosis Transmembrane Conductance Regulator (CFTR) harboring the ΔF508 mutation (Homo sapiens, UniProt P13569, DEL508-508)
# TEST PROTOCOL: H441 cell ΔF508-CFTR-HRP cell surface assay (Emax and EC50)
MEASURED QUANTITY: EC50 (nM)
Express your answer in nM, writing the number without its unit.

Asked: Given CC(C)(C)[C@H](NC(=O)c1ccc2ccccc2c1OCC1CCCCC1)C(=O)O , state its recorded EC50.
Given back: 3700

Asked: Another compound to look at: CC(C)(C)[C@H](NC(=O)c1ccc2cc(F)ccc2c1OCc1ccc(S(F)(F)(F)(F)F)cc1)C(=O)O
Given back: 700

Asked: Can you handle CC(C)(C)[C@@H](NC(=O)c1ccc2ccc(C(F)(F)F)cc2c1OCc1ccc(C(F)(F)F)cc1)C(=O)O next?
Given back: 600

Asked: Query O=C(N[C@H](C(=O)O)C12CC(C(F)(F)F)(C1)C2)c1ccc2cc(F)ccc2c1OCc1ccc(OC(F)(F)F)cc1 next
Given back: 700
